Test: qHTS assay to identify small molecule antagonists of the estrogen receptor alpha (ER-alpha) signaling pathway using the BG1 cell line in the presence of 0.1 nM 17-beta-estradiol - cell viability counter screen (AID 1259241); note: nearly all actives have a fitted effect of over 40% in size
Conditions: VM7Luc4E2 (BG1) viability, CellTiter-Fluor protease, 22 h, 0.1 nM estradiol agonist added; series mostly up to 92.4 µM
Results filed as inconclusive are left out. Calls of active or inactive are those of the source. Calls come from the whole dose curve; as a rule, active = well fitted cell-killing curve with a large enough effect in the repeat runs; inconclusive = weak or mixed curves, or effect the other way; inactive = flat fitted curve, though single readings scatter.
Outcome codes: 1.0 = active, 0.0 = inactive

COMPOUND	ANSWER_LABEL
Cc1cc(O)c2ccccc2c1O	1.0
Clc1ccc2nsnc2c1NC1=NCCN1	0.0
CC(C)(C)c1ccc(C(=O)O)cc1	0.0
Clc1ccc2cc3ccccc3cc2c1	0.0
CCC(Cl)C(Cl)C(Cl)CC(Cl)C(Cl)C(C)Cl (configuration not stated)	0.0
Cc1c(C)c2c(c(C)c1O)CCC(C)(COc1ccc(CC3SC(=O)NC3=O)cc1)O2 (configuration not stated)	0.0
Cc1cccc(N(C)C(=S)Oc2ccc3c(c2)C2CCC3C2)c1 (configuration not stated)	0.0
CCCCCCCC[N+](CCCCCCCC)(CCCCCCCC)CCCCCCCC	1.0
O=C1C=CC(=O)N1	1.0
CCC(C)Nc1ccc(NC(C)CC)cc1 (configuration not stated)	1.0
CCCCCCCC/C=C/CCCCCCCC1=NCCN1CCO	0.0
CC(=O)S[C@@H]1CC2=CC(=O)CC[C@]2(C)[C@H]2CC[C@@]3(C)[C@@H](CC[C@@]34CCC(=O)O4)[C@H]12	0.0
O=C(Oc1cccc2cccnc12)c1ccccc1	0.0
Oc1cc2ccccc2c2ccccc12	1.0
CC[C@H]1O[C@]2(CC[C@@H]1C)C[C@@H]1C[C@@H](C/C=C(\C)C[C@@H](C)/C=C/C=C3\CO[C@@H]4[C@H](O)C(C)=C[C@@H](C(=O)O1)[C@]34O)O2	0.0
NC(=O)NS(=O)(=O)c1ccc(N)cc1	0.0
Cc1cc2c(cc1C(F)(F)F)N(C(=O)Nc1ccc(Oc3cccnc3C)nc1)CC2	0.0
[O-][n+]1ccccc1SSc1cccc[n+]1[O-]	1.0
CCC1OCC(COc2ccc(Oc3ccccc3)cc2)O1 (configuration not stated)	0.0
On1ccccc1=S	1.0
O=C(O)c1c(Cl)cccc1Cl	0.0
OCCN1CCN(CC/C=C2/c3ccccc3Sc3ccc(C(F)(F)F)cc32)CC1	0.0
C[C@@H]1C[C@H]2[C@@H]3CCC4=CC(=O)C=C[C@]4(C)[C@@]3(Cl)[C@@H](O)C[C@]2(C)[C@@]1(OC(=O)c1ccco1)C(=O)CCl	0.0
CCCN(CCC)C(=O)C(CCC(=O)OCCCN1CCN(CCOC(=O)Cc2c(C)n(C(=O)c3ccc(Cl)cc3)c3ccc(OC)cc23)CC1)NC(=O)c1ccccc1 (configuration not stated)	1.0
C[C@@H](NCCCc1cccc(C(F)(F)F)c1)c1cccc2ccccc12	0.0
CN1CCC(Nc2ncc3ncnc(Nc4ccc(F)c(Cl)c4)c3n2)CC1	0.0
CC[C@H](c1ccc(O)cc1)[C@@H](CC)c1ccc(O)cc1	0.0

---

Experiment: qHTS assay to identify small molecule agonists of the retinoic acid receptor (RAR) signaling pathway (AID 1159553)
Details: C3RL4 RARE luciferase reporter, agonist, 6 h; series mostly up to 73.3 µM
Results filed as inconclusive are left out. Active and inactive are the calls of the source. Calls come from the whole dose curve; as a rule, active = well fitted activation curve with a large enough effect in the repeat runs; inconclusive = weak or mixed curves, or effect the other way; inactive = no such curve, though single readings can be large or run the other way.
Outcome codes: active, inactive

MOLECULE	ANSWER_LABEL
C1CCCC1	inactive
O=C(N/N=C/c1ccccc1O)c1ccncc1	active
COC(=O)C1=C(C)NC(C)=C(C(=O)OCC(C)C)C1c1ccccc1[N+](=O)[O-] (centres undefined)	inactive
Nc1ccc2cc(S(=O)(=O)O)cc(O)c2c1N=Nc1ccccc1C(F)(F)F	inactive
O=c1cc(-c2ccc(O)cc2)oc2cc(O)cc(O)c12	active
CCCC1O[C@@H]2C[C@H]3[C@@H]4CCC5=CC(=O)C=C[C@]5(C)[C@H]4[C@@H](O)C[C@]3(C)[C@]2(C(=O)CO)O1 (some centres undefined)	inactive
NC(=O)NS(=O)(=O)c1ccc(N)cc1	inactive
CC(C)OC(=O)c1cc2c(OCC(O)CNC(C)(C)C)cccc2[nH]1 (centres undefined)	inactive
OCCCCCCCCCCCCBr	inactive
